System: ScHse1
Assay Comment: SPOT peptide array binding signal intensity (averaged, normalized) (arbitrary units (background-subtracted, floor 0; scale differs between SH3 domains)); higher = stronger binding of the SH3 domain to the peptide
Label rule, in plain words: SPOT peptide array binding signal intensity of 1000 and up is 1, under 1000 is 0.

| Binder | Class |
| --- | --- |
| RSLRKRPTSPSISGS | 1 |
| KRKRRLPVSEDTNTK | 1 |
| QRIRKIPGIPLMSVG | 0 |
| VATSTSPKLPPRGKQ | 0 |
| LRIKRKPVQTFFEFI | 1 |
| QRKSLRRPTLSKPAV | 1 |
| ALFRLSFFFPLDPAY | 1 |
| KRRTSLFPWLHKPGI | 1 |
| PLQSKIPMLPSRRTM | 0 |
| GATNNAPTLPKRKNP | 0 |
| APPPPPRRATPEKKP | 0 |
| APPLPPTAPPPPSLP | 0 |
| ALKQKKIPPPFKPHL | 0 |
| PPLPRAPPVPPATFE | 0 |
| QPWTDQFEKLEKEVS | 0 |

Data origin, for the record: the supplement of paper PMC4466140
